# TARGET_ENTITY: Histone deacetylase 11 (Homo sapiens, UniProt Q96DB2)
# Sequence (Q96DB2 whole entry): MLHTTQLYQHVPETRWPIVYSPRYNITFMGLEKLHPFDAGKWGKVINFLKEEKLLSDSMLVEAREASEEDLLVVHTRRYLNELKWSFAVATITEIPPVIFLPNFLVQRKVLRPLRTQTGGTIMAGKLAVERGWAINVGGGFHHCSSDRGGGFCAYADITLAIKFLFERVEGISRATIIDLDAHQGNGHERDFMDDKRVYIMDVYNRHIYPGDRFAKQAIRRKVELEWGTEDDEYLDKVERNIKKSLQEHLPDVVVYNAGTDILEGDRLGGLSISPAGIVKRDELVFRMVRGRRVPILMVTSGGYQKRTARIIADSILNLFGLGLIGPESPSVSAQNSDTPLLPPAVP
Field: label. Allowed values: Criterion met (IC50 < 200 nM) or Criterion not met (IC50 >= 200 nM).

Answered cases to consult:
- O=C(CCCCC[C@H](NC(=O)[C@@H]1CCCC(=O)N1)C(=O)NCCc1ccccc1)NO: Criterion not met
- O=C(CCCCC[C@H](NC(=O)C1C(=O)NCC1c1ccccc1)C(=O)Nc1ccccc1)NO (stereo partly drawn): Criterion met
- O=C(CCCCC[C@H](NC(=O)[C@@H]1CCCC(=O)N1)C(=O)NC1CCCC1)NO: Criterion not met
- Cc1ccc(NC(=O)CCCCCCC(=O)NO)cc1: Criterion met
- O=C(CCCCC[C@H](NC(=O)C1CCNC1=O)C(=O)Nc1ccccc1)NO (stereo partly drawn): Criterion met

Asked: In the record for "O=C(CCCCCCC(=O)NC1CCCC1)NO" , is IC50 less than 200 nM?
Given back: Criterion not met

Asked: In the record for "O=C(CCCCC[C@H](NC(=O)[C@H]1CCC(=O)N1)C(=O)Nc1cccc(C(F)(F)F)c1)NO" , is IC50 less than 200 nM?
Given back: Criterion met

Asked: In the record for "O=C(CCCCC[C@H](NC(=O)[C@@H]1CCCC(=O)N1)C(=O)Nc1ccccc1)NO" , is IC50 less than 200 nM?
Given back: Criterion met

Asked: In the record for "O=C(CCCCCCC(=O)Nc1cccc(C(F)(F)F)c1)NO" , is IC50 less than 200 nM?
Given back: Criterion met

Asked: In the record for "O=C(CCCCC[C@H](NC(=O)[C@H]1CCC(=O)N1)C(=O)Nc1ccccc1)NO" , is IC50 less than 200 nM?
Given back: Criterion met

Asked: In the record for "O=C(CCCCC[C@H](NC(=O)[C@@H]1CCC(=O)N1)C(=O)Nc1ccccc1)NO" , is IC50 less than 200 nM?
Given back: Criterion met

Asked: In the record for O=C(CCCCC[C@H](NC(=O)C1CCCNC1=O)C(=O)Nc1ccccc1)NO (stereo partly drawn) , is IC50 less than 200 nM?
Given back: Criterion not met

Asked: In the record for "Cc1ccc(NC(=O)[C@H](CCCCCC(=O)NO)NC(=O)[C@H]2CCC(=O)N2)cc1" , is IC50 less than 200 nM?
Given back: Criterion met

Asked: In the record for "O=C(CCCCC[C@H](NC(=O)[C@@H]1CC(=O)N1)C(=O)Nc1ccccc1)NO" , is IC50 less than 200 nM?
Given back: Criterion met

Asked: In the record for "O=C(CCCCCCC(=O)NCCc1ccccc1)NO" , is IC50 less than 200 nM?
Given back: Criterion not met

Asked: In the record for "O=C(CCCCC[C@H](NC(=O)[C@H]1CCC(=O)N1)C(=O)NCCc1ccccc1)NO" , is IC50 less than 200 nM?
Given back: Criterion met

Asked: In the record for "Cc1cccc(NC(=O)[C@H](CCCCCC(=O)NO)NC(=O)[C@H]2CCC(=O)N2)c1" , is IC50 less than 200 nM?
Given back: Criterion met

Asked: In the record for "Cc1cccc(NC(=O)CCCCCCC(=O)NO)c1" , is IC50 less than 200 nM?
Given back: Criterion not met
